- protocol: inhibitors of TNFa-induced NFkB p65 translocation, primary screen, imaging, HUVEC, MLSMR starter and 10KST1 sets (AID 438);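 further: compound added about 3h40 before a 20 min TNFalpha stimulation; signal is the nuclear over cytoplasmic p65 intensity ratio per well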
- stated.conditions: HUVEC TNFa-induced p65 nuclear translocation; at 2 µM, stronger effect = higher value, 0% TNFa-plus-vehicle, 100% no-TNFa wells
Activity calls are given as the source filed them.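 How the source made its calls: active means inhibition above 20% together with a positive visual image hit; inconclusive means visual image hit but inhibition not above 20%; inactive means no visual image hit.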
inhibition for assorted compounds

[
  {
    "compound": "CCOC(=O)C1=C(C)Nc2nnnn2C1c1c[nH]c2ccccc12 (stereo not drawn)",
    "inhibition": "0.6% (inactive)"
  },
  {
    "compound": "N#C/C(=C\\c1c(N2CCC(C(N)=O)CC2)nc2ccccn2c1=O)S(=O)(=O)c1ccccc1",
    "inhibition": "-3.7% (inactive)"
  },
  {
    "compound": "CC(=O)Nc1sc2c(c1CN1CCN(c3ccccn3)CC1)CCCC2",
    "inhibition": "-14.6% (inactive)"
  }
]

Item: COc1cccc(Cn2c(NCc3ccco3)nc3c2c(=O)n(C)c(=O)n3C)c1 | inhibition: -6.1% (inactive)

The compound CCOc1ccc2c(c1)c1nnc(SCC(=O)N3CCC(C)CC3)nc1n2C showed inhibition equal to -0.2% (inactive)

Item: Cc1ccc(S(=O)(=O)N(CC(=O)NCc2ccco2)Cc2ccccc2F)cc1 | inhibition: 2.4% (inactive)

For record Nc1nnnn1N=C1CCCCC1 the listed inhibition is -3.4% (inactive)

Lab note: O=C(Oc1oc(-c2ccco2)nc1C=Nc1ccccc1)c1ccco1 gave inhibition of 15% (inactive)

Per the record, O=C(NCc1ccco1)c1cnc2n(c1=O)CCS2 has inhibition of 4.4% (inactive)

Lookup result for COC(=O)c1ccc(C2/C(=C(\O)c3cccc(OC)c3)C(=O)C(=O)N2CCCN2CCOCC2)cc1 (stereo not drawn) ; measured inhibition: -10.1% (inactive)
